MEASURED_TARGET: Kappa-type opioid receptor (Homo sapiens)
Sequence (P41145 whole entry): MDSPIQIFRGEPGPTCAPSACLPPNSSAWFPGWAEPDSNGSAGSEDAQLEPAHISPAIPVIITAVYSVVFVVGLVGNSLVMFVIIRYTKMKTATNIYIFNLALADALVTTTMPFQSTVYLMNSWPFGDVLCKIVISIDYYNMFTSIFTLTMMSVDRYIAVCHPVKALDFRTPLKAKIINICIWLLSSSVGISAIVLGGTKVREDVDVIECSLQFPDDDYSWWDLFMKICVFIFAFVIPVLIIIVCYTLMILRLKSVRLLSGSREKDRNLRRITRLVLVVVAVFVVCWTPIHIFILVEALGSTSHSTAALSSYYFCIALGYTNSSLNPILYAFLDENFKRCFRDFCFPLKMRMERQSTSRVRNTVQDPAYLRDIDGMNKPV
MEASURED_ENDPOINT: pKi
Note: pKi values are expressed as the negative base-10 logarithm of concentration in M.

Requested field: pKi. Item: COC(=O)/C=C/C(=O)N[C@@H]1CC[C@@]2(O)[C@H]3Cc4ccc(O)c5c4[C@@]2(CCN3CC2CC2)[C@H]1O5
9.03

* * *

Species: Homo sapiens
ASSAY_METHOD_TEXT: Selectivity ratio of Ki for delta opioid receptor to Ki for mu opioid receptor
MEASURED_ENDPOINT: Ratio Ki

Name the recorded Ratio Ki for O=C(O[C@@]12CCC(=O)[C@@H]3Oc4c(O)ccc5c4[C@@]31CCN(CC1CC1)[C@@H]2C5)c1cc2ccccc2cn1 .
> 146

Proceed to O=C(O[C@@]12CCC(=O)[C@@H]3Oc4c(O)ccc5c4[C@@]31CCN(CC1CC1)[C@@H]2C5)c1cnc2ccccc2c1
304

Cool, now O=C(O[C@@]12CCC(=O)[C@@H]3Oc4c(O)ccc5c4[C@@]31CCN(CC1CC1)[C@@H]2C5)c1ccccn1
838

Likewise for O=C(O[C@@]12CCC(=O)[C@@H]3Oc4c(O)ccc5c4[C@@]31CCN(CC1CC1)[C@@H]2C5)c1ccc2ccccc2c1 ?
4

Another compound to check: COc1cccc2c1[C@]13CCN(CC4CC4)[C@H](C2)[C@]1(OC)CCC(=O)C3
40

Subsequent entry: O=C(O[C@@]12CCC(=O)[C@@H]3Oc4c(O)ccc5c4[C@@]31CCN(CC1CC1)[C@@H]2C5)c1cccnc1
107

Another compound to check: C[C@@H](O)[C@H](NC(=O)[C@H](NC(=O)[C@@H](NC(=O)[C@H](CCCNC(=N)N)NC(=O)C(Cc1c[nH]c2ccccc12)NC(=O)[C@@H](Cc1ccc(O)cc1)NC(=O)[C@H](CS)NC(=O)[C@H](N)Cc1ccccc1)[C@@H](C)O)C(C)(C)S)C(=O)O (stereo in doubt)
713
